# Tested on: A. niger MMX 0624 ATCC 16888
# Assay summary: MIC/MEC assay (CLSI microdilution)
# Type: cell-based
# Measurement parameters: Aspergillus niger, ATCC16888, 48 h, RPMI plus 0.002% Tween-80, read-out: MIC
Numbered stars: 1 amine (or outer) side, 2 acyl side, 3 side chain; on linkers, the order of the positions; unused ones are H or OH. Square brackets hold non-standard residues; d marks the D form. Peptide text beside a SMILES is read from it. ξ: configuration not given here. X2 = CN1CCN(c2ccc(-c3cccc(C[C@@H](C(=O)[*:2])N(C)[*:1])c3)cc2)CC1; X4 = CN1CCN(c2cc(-c3cccc(C[C@@H](C(=O)[*:2])N(C)[*:1])c3)ccn2)CC1; X14 = CN([C@@H](Cc1cccc(-c2ccc3ncccc3c2)c1)C(=O)[*:2])[*:1]; X22 = CN([C@@H](Cc1cccc(-c2cncc3ccccc23)c1)C(=O)[*:2])[*:1]; X32 = CN([C@@H](Cc1cccc(-c2cccc(F)c2)c1)C(=O)[*:2])[*:1]; Hmp(2R,3S) = CC[C@H](C)[C@@H](O)C(=O)O; NMeVal(β-OH) = CN[C@H](C(=O)O)C(C)(C)O; X6 = CCC(C)[C@@H](O[*:1])C(=O)[*:2]; Ile(3ξ) = CCC(C)[C@H](N)C(=O)O; NMeV = CN[C@H](C(=O)O)C(C)C
Observed property: MIC (µg/mL)
Lab book: enter the figure in µg/mL, no units written.

Sample records with MIC:
- Compound: "CC[C@H](C)[C@@H]1NC(=O)[C@@H]2CCCN2C(=O)[C@H](Cc2cccc(-c3cccc(F)c3)c2)N(C)C(=O)[C@H](Cc2ccccc2)NC(=O)[C@H](C(C)C)N(C)C(=O)[C@@H]([C@@H](C)CC)OC(=O)[C@H](C(C)(C)O)N(C)C(=O)[C@H](CC(C)C)NC(=O)[C@H](C(C)C)N(C)C1=O [Compound 7] (cyclo(F[X32]PI[NMeV]L[NMeVal(β-OH)][Hmp(2R,3S)][NMeV]))"
  Tested system: "A. niger MMX 0624 ATCC 16888"
  MIC [µg/mL]: 0.25
- Compound: "CCC(C)[C@@H]1NC(=O)[C@@H]2CCCN2C(=O)[C@H](Cc2cccc(-c3ccc4ncccc4c3)c2)N(C)C(=O)[C@H](Cc2ccccc2)NC(=O)[C@H](C(C)C)N(C)C(=O)[C@@H](C(C)CC)OC(=O)[C@H](C(C)(C)O)N(C)C(=O)[C@H](CC(C)C)NC(=O)[C@H](C(C)C)N(C)C1=O (stereo partly drawn) [Compound 18] (cyclo(F[X14]P[Ile(3ξ)][NMeV]L[NMeVal(β-OH)][X6][NMeV]))"
  Tested system: "A. niger MMX 0624 ATCC 16888"
  MIC [µg/mL]: 0.25
- Compound: "CC[C@H](C)[C@@H]1NC(=O)[C@@H]2CCCN2C(=O)[C@H](Cc2cccc(-c3ccc(N4CCN(C)CC4)cc3)c2)N(C)C(=O)[C@H](Cc2ccccc2)NC(=O)[C@H](C(C)C)N(C)C(=O)[C@@H]([C@@H](C)CC)OC(=O)[C@H](C(C)(C)O)N(C)C(=O)[C@H](CC(C)C)NC(=O)[C@H](C(C)C)N(C)C1=O [Compound 19] (cyclo(F[X2]PI[NMeV]L[NMeVal(β-OH)][Hmp(2R,3S)][NMeV]))"
  Tested system: "A. niger MMX 0624 ATCC 16888"
  MIC [µg/mL]: 0.015
- Compound: "CC[C@H](C)[C@@H]1NC(=O)[C@@H]2CCCN2C(=O)[C@H](Cc2cccc(-c3cncc4ccccc34)c2)N(C)C(=O)[C@H](Cc2ccccc2)NC(=O)[C@H](C(C)C)N(C)C(=O)[C@@H]([C@@H](C)CC)OC(=O)[C@H](C(C)(C)O)N(C)C(=O)[C@H](CC(C)C)NC(=O)[C@H](C(C)C)N(C)C1=O [Compound 29] (cyclo(F[X22]PI[NMeV]L[NMeVal(β-OH)][Hmp(2R,3S)][NMeV]))"
  Tested system: "A. niger MMX 0624 ATCC 16888"
  MIC [µg/mL]: 0.12

Let us examine a further case.
Q: Answer with reported MIC of CC[C@H](C)[C@@H]1NC(=O)[C@@H]2CCCN2C(=O)[C@H](Cc2cccc(-c3ccnc(N4CCN(C)CC4)c3)c2)N(C)C(=O)[C@H](Cc2ccccc2)NC(=O)[C@H](C(C)C)N(C)C(=O)[C@@H]([C@@H](C)CC)OC(=O)[C@H](C(C)(C)O)N(C)C(=O)[C@H](CC(C)C)NC(=O)[C@H](C(C)C)N(C)C1=O [Compound 15] (cyclo(F[X4]PI[NMeV]L[NMeVal(β-OH)][Hmp(2R,3S)][NMeV]))
A: 0.03

----------
# System: A. fumigatus MMX 5280 ATCC MYA-3626
# Assay summary: MIC/MEC assay (CLSI microdilution)
# Assay type: cell-based, Aspergillus fumigatus
# Measurement parameters: Without Tween-80; 48 hr
Numbered stars: 1 amine (or outer) side, 2 acyl side, 3 side chain; on linkers, the order of the positions; unused ones are H or OH. Square brackets hold non-standard residues; d marks the D form. Peptide text beside a SMILES is read from it. X2 = CN1CCN(c2ccc(-c3cccc(C[C@@H](C(=O)[*:2])N(C)[*:1])c3)cc2)CC1; X4 = CN1CCN(c2cc(-c3cccc(C[C@@H](C(=O)[*:2])N(C)[*:1])c3)ccn2)CC1; Hmp(2R,3S) = CC[C@H](C)[C@@H](O)C(=O)O; NMeVal(β-OH) = CN[C@H](C(=O)O)C(C)(C)O; NMeV = CN[C@H](C(=O)O)C(C)C
Examples of compounds with documented MIC follow.
Only the number, expressed in µg/mL, is required.

Solved cases (2 shown):
- Compound: "CC[C@H](C)[C@@H]1NC(=O)[C@@H]2CCCN2C(=O)[C@H](Cc2cccc(-c3ccc(N4CCN(C)CC4)cc3)c2)N(C)C(=O)[C@H](Cc2ccccc2)NC(=O)[C@H](C(C)C)N(C)C(=O)[C@@H]([C@@H](C)CC)OC(=O)[C@H](C(C)(C)O)N(C)C(=O)[C@H](CC(C)C)NC(=O)[C@H](C(C)C)N(C)C1=O [Compound 19] (cyclo(F[X2]PI[NMeV]L[NMeVal(β-OH)][Hmp(2R,3S)][NMeV]))"
  MIC, µg/mL: 2
- Compound: "CC[C@H](C)[C@@H]1NC(=O)[C@@H]2CCCN2C(=O)[C@H](Cc2cccc(-c3ccnc(N4CCN(C)CC4)c3)c2)N(C)C(=O)[C@H](Cc2ccccc2)NC(=O)[C@H](C(C)C)N(C)C(=O)[C@@H]([C@@H](C)CC)OC(=O)[C@H](C(C)(C)O)N(C)C(=O)[C@H](CC(C)C)NC(=O)[C@H](C(C)C)N(C)C1=O [Compound 15] (cyclo(F[X4]PI[NMeV]L[NMeVal(β-OH)][Hmp(2R,3S)][NMeV]))"
  MIC, µg/mL: 2

Now for the compound whose MIC we want.
Q: Recall the reported MIC of C[C@@H]1[C@H](O)[C@@H](C)/C=C/C=C/C=C/C=C/C=C/C=C/C=C/[C@H](O[C@@H]2O[C@H](C)[C@@H](O)[C@H](N)[C@@H]2O)C[C@@H]2O[C@](O)(C[C@@H](O)C[C@@H](O)[C@H](O)CC[C@@H](O)C[C@@H](O)CC(=O)O[C@H]1C)C[C@H](O)[C@H]2C(=O)O [Amphotericin B, reference compound] when tested on A. fumigatus MMX 5280 ATCC MYA-3626.
A: 0.5

----------
As shown below, each of these compounds has a reported MIC value.
# System: C. albicans MMX 2000 ATCC 10231
# Assay summary: MIC assay (CLSI microdilution)
# Assay type: cell-based
# Measurement parameters: Candida albicans, ATCC10231, RPMI plus 0.002% Tween-80; read-out: MIC
# Procedure: Aureobasidin and test compounds (i.e., AbA derivatives of the present invention) were received from Kalexsyn, Inc. (Kalamazoo, Mich.) as powder and were stored at 4° C. until the day of assay. […] amphotericin was obtained from Sigma Aldrich and stored under like conditions. […] Ethanol (95%) was used as a solvent and diluent for all AbA compounds. Amphotericin B was tested from 0.06-64 μg/mL. […]
Numbered stars: 1 amine (or outer) side, 2 acyl side, 3 side chain; on linkers, the order of the positions; unused ones are H or OH. Square brackets hold non-standard residues; d marks the D form. Peptide text beside a SMILES is read from it. X9 = CN1CCN(c2cccc(-c3cccc(C[C@@H](C(=O)[*:2])N(C)[*:1])c3)n2)CC1; X18 = CN([C@@H](Cc1cccc(-c2ccc3ccncc3c2)c1)C(=O)[*:2])[*:1]; X25 = CN([C@@H](Cc1cccc(-c2ccc3cccnc3c2)c1)C(=O)[*:2])[*:1]; Hmp(2R,3S) = CC[C@H](C)[C@@H](O)C(=O)O; NMeVal(β-OH) = CN[C@H](C(=O)O)C(C)(C)O; NMeV = CN[C@H](C(=O)O)C(C)C
API: value field is a number in µg/mL; no unit string.

Use these answered entries as a reference point.
- Compound: "CC[C@H](C)[C@@H]1NC(=O)[C@@H]2CCCN2C(=O)[C@H](Cc2cccc(-c3cccc(N4CCN(C)CC4)n3)c2)N(C)C(=O)[C@H](Cc2ccccc2)NC(=O)[C@H](C(C)C)N(C)C(=O)[C@@H]([C@@H](C)CC)OC(=O)[C@H](C(C)(C)O)N(C)C(=O)[C@H](CC(C)C)NC(=O)[C@H](C(C)C)N(C)C1=O [Compound 33] (cyclo(F[X9]PI[NMeV]L[NMeVal(β-OH)][Hmp(2R,3S)][NMeV]))"
  Tested system: "C. albicans MMX 2000 ATCC 10231"
  Value observed: 0.004
- Compound: "CC[C@H](C)[C@@H]1NC(=O)[C@@H]2CCCN2C(=O)[C@H](Cc2cccc(-c3ccc4ccncc4c3)c2)N(C)C(=O)[C@H](Cc2ccccc2)NC(=O)[C@H](C(C)C)N(C)C(=O)[C@@H]([C@@H](C)CC)OC(=O)[C@H](C(C)(C)O)N(C)C(=O)[C@H](CC(C)C)NC(=O)[C@H](C(C)C)N(C)C1=O [Compound 17] (cyclo(F[X18]PI[NMeV]L[NMeVal(β-OH)][Hmp(2R,3S)][NMeV]))"
  Tested system: "C. albicans MMX 2000 ATCC 10231"
  Value observed: 0.015

Next:
Q: Give me measured MIC, please, for this compound: CC[C@H](C)[C@@H]1NC(=O)[C@@H]2CCCN2C(=O)[C@H](Cc2cccc(-c3ccc4cccnc4c3)c2)N(C)C(=O)[C@H](Cc2ccccc2)NC(=O)[C@H](C(C)C)N(C)C(=O)[C@@H]([C@@H](C)CC)OC(=O)[C@H](C(C)(C)O)N(C)C(=O)[C@H](CC(C)C)NC(=O)[C@H](C(C)C)N(C)C1=O [Compound 10] (cyclo(F[X25]PI[NMeV]L[NMeVal(β-OH)][Hmp(2R,3S)][NMeV]))
A: 0.03
